B1: CPEB3 Ribozyme (parent)
chain: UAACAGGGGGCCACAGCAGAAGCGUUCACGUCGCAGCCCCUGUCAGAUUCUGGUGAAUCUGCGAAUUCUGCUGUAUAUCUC

Variants of: B1
TEST_DETAILS: self-cleavage, relative activity (ratio to wild type); higher = more cleavage; in vitro, sequencing
Reported self-cleavage maps to class as: low = under 0.2, mid = from 0.2 up to 0.6, high = 0.6 and over

In: Exercise: read the entry C32U U72A and state which class it falls under.
Out: low

In: Hi, small favor: classify G61C by its self-cleavage when you get a moment.
Out: mid

In: Into which bin does this variant go? U43A A75C
Out: high

In: For A47G G63C , which self-cleavage bin applies?
Out: high

In: Given U78A U80A , name the class its self-cleavage places it in.
Out: high

In: Using the reported self-cleavage, which band applies to U26C U76C ?
Out: mid

In: Lab note: sort C32A U54A into the matching self-cleavage band.
Out: mid

In: Input G9A C27A ; output its category
Out: low

In: Pick a category. Item: A20U A28U
Out: low

In: # bin label for G16A C39U
Out: low

In: Would you mind sorting U31A U54A into the appropriate category?
Out: mid
